assay: qHTS assay to identify small molecule antagonists of the estrogen receptor beta (ER-beta) signaling pathway - cell viability counter screen (AID 1259382); conditions: ER-beta-UAS-bla HEK293T viability, CellTiter-Glo luminescence, 16 h; series mostly up to 92.4 µM;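 also: HEK293T cells carrying ER-beta-UAS-bla reporter stimulated with estradiol; % is scaled to controls: 0 for no effect and ±100 for the full control effect; nearly all actives have a fitted effect of over 55% in size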
Inconclusive results are not listed. Calls of active or inactive are those of the source. Calls follow the shape of the dose curve; as a rule, active = well fitted cell-killing curve with a large enough effect in the repeat runs; inconclusive = weak or mixed curves; inactive = flat fitted curve, though single readings scatter.
QUANTITY: outcome

Worked examples, 7 molecules total:
Clc1ccc(C(c2ccc(Cl)cc2)C(Cl)(Cl)Cl)cc1: inactive
Fc1cccc(Cl)c1CCl: inactive
CCCSP(=O)(OCC)SCCC: inactive
CC(C)(O)c1cnn2c(-c3ccc(F)c(-c4c(F)cccc4C#N)c3)cnc2n1: inactive
CC1(C)[C@H](C(=O)O[C@H](C#N)c2cccc(Oc3ccccc3)c2)[C@@H]1/C=C(\Cl)C(F)(F)F: inactive
ClC1=C(Cl)C2(Cl)C3C(Cl)C=CC3C1(Cl)C2(Cl)Cl (stereo not drawn): inactive
COc1cccc2c1C(=O)c1c(O)c3c(c(O)c1C2=O)C[C@@](O)(C(=O)CO)CC3OC1CC(N2CCOC(OC)C2)C(O)C(C)O1 (stereo partly drawn): inactive

What value of outcome has been recorded for this entry: c1ccc2c(c1)OCC(C1=NCCN1)O2 (stereo not drawn)
inactive

====

assay: A CellTox Green Cytotoxicity Assay to monitor cytotoxicity in HepG2 cells - 0 hour (AID 1224882); conditions: CellTox Green fluorescence; series mostly up to 76.8 µM; also: % is scaled to controls: 0 for no effect and ±100 for the full control effect; nearly all actives have a fitted effect of over 35% in size
Calls of active or inactive are those of the source. The call rests on the fitted dose curve; in most records, active means well fitted activation curve with a large enough effect in the repeat runs; inconclusive means weak or mixed curves; inactive means flat fitted curve, though single readings scatter.
Answer with one of the outcomes yes (1) for active, no (0) for inactive

Solved entries:
SCc1ccco1: no (0)
CCCCCCCCCCBr: no (0)
CCSC(C)CC1CC(=O)C(/C(CC)=N/OC/C=C/Cl)=C(O)C1 (stereo unspecified): no (0)
COC[C@H](C)N(C(=O)CCl)c1c(C)csc1C: no (0)

Dear colleague, could you share the recorded outcome for "Nc1ccc(Cl)cc1C(=O)c1ccccc1" when you have a moment?
no (0)

Recorded test outcome, item CC1(C)C(/C=C(\Cl)C(F)(F)F)C1C(=O)OC(C#N)c1cccc(Oc2ccccc2)c1 (stereo unspecified)
no (0)

What call does the record list for "FC(F)(F)c1cccc(C2=CCN(CCc3ccc4ccccc4c3)CC2)c1" ?
no (0)

====

assay: qHTS assay for small molecule activators of the heat shock response signaling pathway - cell viability counter screen (AID 743209); details: HSE-bla HeLa viability, CellTiter-Glo luminescence, 5 h; series mostly up to 62.6 µM; also: nearly all actives have a fitted effect of over 50% in size
Inconclusive results are not listed. The source made the active and inactive calls. Calls follow the shape of the dose curve; as a rule, active = well fitted cell-killing curve with a large enough effect in the repeat runs; inconclusive = weak or mixed curves, or effect the other way; inactive = no such curve, though single readings can be large or run the other way.
The reply should name one outcome from active, inactive

Cc1cc(N=Nc2ccccc2C)ccc1N: inactive
C=CC(=O)OCCCCOC(=O)C=C: active
Oc1ccc(C(=C(Cl)Cl)c2ccc(O)cc2)cc1: inactive
CCN(CC)c1c([N+](=O)[O-])cc(C(F)(F)F)c(N)c1[N+](=O)[O-]: inactive
ClCc1ccc(Cl)cc1Cl: inactive

What outcome does the record of this test show for "O=C(NC(=O)c1c(F)cccc1F)Nc1cc(Cl)c(OC(F)(F)C(F)F)c(Cl)c1" ?
inactive

====

assay: qHTS assay to test for compound auto fluorescence at 590 nm (red) in HepG2 cell free culture (AID 720684); details: cell-free medium autofluorescence, red 540/590 nm; series mostly up to 91.3 µM; also: % is scaled to controls: 0 for no effect and ±100 for the full control effect
Calls of active or inactive are those of the source. Calls follow the shape of the dose curve; as a rule, active = well fitted curve in the direction sought with a large enough effect in the repeat runs; inconclusive = weak or mixed curves; inactive = flat fitted curve, though single readings scatter.
QUANTITY: fluorescence, % of Rose Bengal

Solved cases below.
CSCCCN=C=S: inactive
C[C@@H]1O[C@@H](O[C@H]2C[C@@H](O)[C@]3(CO)[C@H]4[C@H](O)C[C@]5(C)[C@@H](C6=CC(=O)OC6)CC[C@]5(O)[C@@H]4CC[C@]3(O)C2)[C@H](O)[C@H](O)[C@H]1O: inactive
CC(=O)OC1(c2ccccc2)CCN(CCc2ccccc2)CC1: inactive
O=[N+]([O-])O.O=[N+]([O-])O.[Cd]: inactive
CN(C)C1CSSSC1: inactive

Please give the measured fluorescence, % of Rose Bengal for this compound: "CCCCCCCCCBr"
inactive

What value of fluorescence, % of Rose Bengal has been recorded for this entry: "CC[C@H]1C[C@@H]2C[C@H]3c4[nH]c5ccc(OC)cc5c4CCN(C2)[C@@H]13"
inactive

Using the record for C=CCC1=C(C)C(OC(=O)C2C(C=C(C)C)C2(C)C)CC1=O (stereo unspecified) , report its fluorescence, % of Rose Bengal.
inactive

Field request: fluorescence, % of Rose Bengal | item: "CCCCCCCCCCCCCCCCCCn1cc[n+](C)c1"
inactive

Find the recorded fluorescence, % of Rose Bengal belonging to "[CH3][Hg][Cl]" and report it.
inactive

Please look up its fluorescence, % of Rose Bengal: "ClC1=C(Cl)[C@]2(Cl)[C@H]3[C@H]([C@H]4C=C[C@H]3C4)[C@@]1(Cl)C2(Cl)Cl"
inactive
